Molecular target: ZBTB43 (UniProt O43298)
Sequence (O43298 whole entry, looked up): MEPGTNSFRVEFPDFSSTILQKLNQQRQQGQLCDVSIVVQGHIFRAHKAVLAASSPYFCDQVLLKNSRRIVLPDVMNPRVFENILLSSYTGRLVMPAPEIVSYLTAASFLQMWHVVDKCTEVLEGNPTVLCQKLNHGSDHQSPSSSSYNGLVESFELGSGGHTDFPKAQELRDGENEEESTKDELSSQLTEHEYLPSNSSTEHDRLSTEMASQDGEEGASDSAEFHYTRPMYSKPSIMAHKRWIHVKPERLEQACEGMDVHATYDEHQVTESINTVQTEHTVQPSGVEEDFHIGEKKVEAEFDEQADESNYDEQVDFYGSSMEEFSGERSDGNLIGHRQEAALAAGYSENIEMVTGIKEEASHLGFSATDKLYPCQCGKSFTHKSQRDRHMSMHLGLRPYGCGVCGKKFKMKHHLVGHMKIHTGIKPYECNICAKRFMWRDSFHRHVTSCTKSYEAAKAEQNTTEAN
Experiment: log2 fold change, soluble protein after heating vs DMSO (PISA); higher = thermal stabilisation; K562 cells, 10 uM, 30 min; active = over 0.2 and 3.5 SD of the protein, either way, in both replicates (recomputed)
Targets with a hit are over-represented here; the source holds about 7,900 in all. About 0.6% of all pairs of compound and target were hits.
Parameter log2 fold change: see the listing below.
Format: numeric value only, no unit, no commentary.

Here's what some known entries look like.
Cc1ccc(NC(=O)c2cccc(C(C)(C)C#N)c2)cc1Nc1ccc2ncn(C)c(=O)c2c1 ... 0.004
CNc1nc(-c2ccc3c(N)n[nH]c3c2)cc(N2C[C@@H](C(=O)NC3CCCCC3)CC[C@H]2C)n1 ... -0.014
Cc1ccc(C(=O)N(CCCN)[C@@H](c2nc3cc(Cl)ccc3c(=O)n2Cc2ccccc2)C(C)C)cc1 [ispinesib] ... 0.164
CCn1c(C(=O)N(C2CC2)C2CC2)cc2c3c(ncn3C)c(Nc3cc(C)n(C)n3)nc21 ... -0.033
COC(=O)[C@H](CCSC)NC(=O)c1ccc(NC[C@@H](N)CS)cc1-c1ccccc1 ... 0.018
CNCc1ccc(-c2[nH]c3cc(F)cc4c3c2CCNC4=O)cc1 [rucaparib] ... -0.272

Looking up Cc1ccc(NC(=O)c2ccc(CN3CC[C@H](N(C)C)C3)c(C(F)(F)F)c2)cc1Nc1nccc(-c2cncnc2)n1 [bafetinib] , I found its log2 fold change recorded as -0.006

Just so you know, measured log2 fold change for Cc1nc(Nc2n[nH]c3c2CN(C(=O)N[C@H](CN(C)C)c2ccccc2)C3(C)C)c2sccc2n1 came out at 0.043

Recorded result, CC(=O)c1cnc2ccc(-c3cc(Cl)c(O)c(Cl)c3)nc2c1N[C@H]1CC[C@H](CN(C)C)CC1 , log2 fold change: 0.008

Consider Cc1ccc(NC(=O)c2cccc(N(C)C)c2)cc1NC(=O)c1ccc(O)cc1 . Its measured log2 fold change is 0.141

# log2 fold change (molecule: Cc1nc(Nc2ncc(C(=O)Nc3c(C)cccc3Cl)s2)cc(N2CCN(CCO)CC2)n1 [dasatinib] ) is -0.034

Sample CCN(CCCOc1ccc2c(Nc3cc(CC(=O)Nc4cccc(F)c4)[nH]n3)ncnc2c1)CCOP(=O)(O)O [barasertib] ; log2 fold change observed: -0.105
